- System: A549
- experiment: Growth inhibition of human A549 cells after 2 days by SRB assay
- Type: functional, cell-based
- test-parameters: A549, 48 h
Known IC50 of a selection of molecules
endpoint: IC50 (µg/mL)

molecule | relation-sign | test-value
CCCCCCCCCCCCCc1cccc(O)c1C(=O)O [GINKGOLIC ACID 13:0] | > | 50
CCCCCC/C=C\CCCCCCCc1cccc(O)c1C(=O)O [GINGKOLIC ACID] | = | 31.3
CCCCCCCCCCCCCc1cc(O)cc(O)c1 | > | 50
CCCCCC/C=C\CCCCCCCCCc1cccc(O)c1 | = | 11.8
CCCCCC/C=C\CCCCCCCCCc1cccc(O)c1C(=O)O [GINKGOLIC ACID 17:1] | = | 29.2
CCCCCCCCCCCCCCCc1cccc(O)c1 | = | 11.9
CCCCCCCCCCCCCc1cccc(O)c1 | = | 25.9

* * *

The next entries give measured IC50 for 1-phosphatidylinositol 4,5-bisphosphate phosphodiesterase gamma-1 (Bos taurus).

compound-smiles | tested-on | relation-sign | IC50 [µM]
CCCCCC/C=C\CCCCCCCc1cccc(OC(C)=O)c1C(=O)OC | 1-phosphatidylinositol 4,5-bisphosphate phosphodiesterase gamma-1 (Bos taurus) | > | 621
CCCCCC/C=C\CCCCCCCCCc1cc(O)cc(O)c1 | 1-phosphatidylinositol 4,5-bisphosphate phosphodiesterase gamma-1 (Bos taurus) | = | 30.6
CCCCCCCCCCCCCCCc1cccc(O)c1 | 1-phosphatidylinositol 4,5-bisphosphate phosphodiesterase gamma-1 (Bos taurus) | = | 58
Cc1cccc(O)c1 | 1-phosphatidylinositol 4,5-bisphosphate phosphodiesterase gamma-1 (Bos taurus) | > | 2310
Cc1cc(O)cc(O)c1 | 1-phosphatidylinositol 4,5-bisphosphate phosphodiesterase gamma-1 (Bos taurus) | > | 2010
CCCCCC/C=C\CCCCCCCc1cccc(OC(C)=O)c1 | 1-phosphatidylinositol 4,5-bisphosphate phosphodiesterase gamma-1 (Bos taurus) | > | 726
CCCCCC/C=C\CCCCCCCc1cccc(O)c1C(=O)O | 1-phosphatidylinositol 4,5-bisphosphate phosphodiesterase gamma-1 (Bos taurus) | = | 5.66

* * *

- Tested on: MCF7
- experiment: Growth inhibition of human MCF7 cells after 2 days by SRB assay
- Format: functional, cell-based
- test-parameters: MCF7, 48 h
Known log10 IC50 of a selection of molecules
endpoint: log10 IC50 (log10 of the value in µg/mL)

compound-smiles | tested-on | log10 IC50
CCCCCC/C=C\CCCCCCCCCc1cccc(O)c1C(=O)O | MCF7 | 0.70
CCCCCCCCCCCCCCCc1cccc(O)c1 | MCF7 | 0.94
CCCCCC/C=C\CCCCCCCCCc1cccc(O)c1 | MCF7 | 0.86
CCCCCCCCCCCCCc1cc(O)cc(O)c1 | MCF7 | 0.28
CCCCCCCCCCCCCc1cccc(O)c1 | MCF7 | 0.85
CCCCCC/C=C\CCCCCCCc1cccc(O)c1C(=O)O | MCF7 | 0.81
CCCCCCCCCCCCCc1cccc(O)c1C(=O)O | MCF7 | 1.36

* * *

- tested-on: 1-phosphatidylinositol 4,5-bisphosphate phosphodiesterase gamma-1 (Bos taurus, UniProt P08487)
- Sequence (P08487 whole entry): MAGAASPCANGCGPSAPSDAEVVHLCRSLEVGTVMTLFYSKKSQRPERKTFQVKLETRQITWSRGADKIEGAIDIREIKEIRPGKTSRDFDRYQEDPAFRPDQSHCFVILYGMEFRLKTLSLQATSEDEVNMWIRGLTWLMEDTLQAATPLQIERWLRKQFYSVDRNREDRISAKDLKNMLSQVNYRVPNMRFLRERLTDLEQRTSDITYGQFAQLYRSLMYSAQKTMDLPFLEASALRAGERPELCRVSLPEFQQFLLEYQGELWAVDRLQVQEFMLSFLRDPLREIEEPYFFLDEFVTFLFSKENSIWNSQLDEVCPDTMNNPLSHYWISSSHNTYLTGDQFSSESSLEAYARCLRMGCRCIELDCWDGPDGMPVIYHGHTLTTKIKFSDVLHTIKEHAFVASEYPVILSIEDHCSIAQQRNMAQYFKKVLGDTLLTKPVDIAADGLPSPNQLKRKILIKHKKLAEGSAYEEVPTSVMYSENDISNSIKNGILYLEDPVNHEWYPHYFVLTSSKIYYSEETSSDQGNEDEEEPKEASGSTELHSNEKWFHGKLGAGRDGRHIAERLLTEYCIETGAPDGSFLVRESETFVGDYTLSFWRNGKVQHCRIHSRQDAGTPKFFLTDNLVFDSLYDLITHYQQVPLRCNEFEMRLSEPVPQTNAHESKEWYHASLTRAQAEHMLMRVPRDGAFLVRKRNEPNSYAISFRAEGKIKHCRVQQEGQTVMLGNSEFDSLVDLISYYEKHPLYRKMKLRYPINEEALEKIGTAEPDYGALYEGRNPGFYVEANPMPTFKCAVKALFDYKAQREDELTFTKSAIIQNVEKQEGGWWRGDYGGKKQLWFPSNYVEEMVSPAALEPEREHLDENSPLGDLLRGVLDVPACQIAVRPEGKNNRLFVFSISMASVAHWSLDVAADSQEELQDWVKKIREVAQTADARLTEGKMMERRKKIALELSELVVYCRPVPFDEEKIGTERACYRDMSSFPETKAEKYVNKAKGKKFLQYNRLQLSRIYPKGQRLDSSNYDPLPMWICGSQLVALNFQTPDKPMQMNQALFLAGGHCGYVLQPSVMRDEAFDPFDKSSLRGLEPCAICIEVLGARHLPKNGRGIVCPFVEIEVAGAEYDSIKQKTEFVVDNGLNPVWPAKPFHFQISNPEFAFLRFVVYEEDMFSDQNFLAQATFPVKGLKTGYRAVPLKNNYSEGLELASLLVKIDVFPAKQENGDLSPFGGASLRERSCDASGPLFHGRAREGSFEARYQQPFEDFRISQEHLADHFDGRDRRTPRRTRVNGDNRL
IC50 vs 20 µM: less than gives 1; not less than gives -1.

compound | class-assignment
CCCCCCCCCCCCCc1cccc(O)c1C(=O)O [GINKGOLIC ACID 13:0] | 1
O=c1cc(-c2ccc(O)c(-c3c(O)cc(O)c4c(=O)cc(-c5ccc(O)cc5)oc34)c2)oc2cc(O)cc(O)c12 [AMENTOFLAVONE] | -1
O=C(O)c1ccccc1O [SALICYLIC ACID] | -1
CCCCCC/C=C\CCCCCCCCCc1cccc(O)c1 | 1
CCCCCCCCCCCCCc1cc(O)cc(O)c1 | -1
CCCCCC/C=C\CCCCCCCCCc1cccc(O)c1C(=O)O [GINKGOLIC ACID 17:1] | 1

* * *

- tested-on: UniProt P10686
- Sequence (P10686 whole entry): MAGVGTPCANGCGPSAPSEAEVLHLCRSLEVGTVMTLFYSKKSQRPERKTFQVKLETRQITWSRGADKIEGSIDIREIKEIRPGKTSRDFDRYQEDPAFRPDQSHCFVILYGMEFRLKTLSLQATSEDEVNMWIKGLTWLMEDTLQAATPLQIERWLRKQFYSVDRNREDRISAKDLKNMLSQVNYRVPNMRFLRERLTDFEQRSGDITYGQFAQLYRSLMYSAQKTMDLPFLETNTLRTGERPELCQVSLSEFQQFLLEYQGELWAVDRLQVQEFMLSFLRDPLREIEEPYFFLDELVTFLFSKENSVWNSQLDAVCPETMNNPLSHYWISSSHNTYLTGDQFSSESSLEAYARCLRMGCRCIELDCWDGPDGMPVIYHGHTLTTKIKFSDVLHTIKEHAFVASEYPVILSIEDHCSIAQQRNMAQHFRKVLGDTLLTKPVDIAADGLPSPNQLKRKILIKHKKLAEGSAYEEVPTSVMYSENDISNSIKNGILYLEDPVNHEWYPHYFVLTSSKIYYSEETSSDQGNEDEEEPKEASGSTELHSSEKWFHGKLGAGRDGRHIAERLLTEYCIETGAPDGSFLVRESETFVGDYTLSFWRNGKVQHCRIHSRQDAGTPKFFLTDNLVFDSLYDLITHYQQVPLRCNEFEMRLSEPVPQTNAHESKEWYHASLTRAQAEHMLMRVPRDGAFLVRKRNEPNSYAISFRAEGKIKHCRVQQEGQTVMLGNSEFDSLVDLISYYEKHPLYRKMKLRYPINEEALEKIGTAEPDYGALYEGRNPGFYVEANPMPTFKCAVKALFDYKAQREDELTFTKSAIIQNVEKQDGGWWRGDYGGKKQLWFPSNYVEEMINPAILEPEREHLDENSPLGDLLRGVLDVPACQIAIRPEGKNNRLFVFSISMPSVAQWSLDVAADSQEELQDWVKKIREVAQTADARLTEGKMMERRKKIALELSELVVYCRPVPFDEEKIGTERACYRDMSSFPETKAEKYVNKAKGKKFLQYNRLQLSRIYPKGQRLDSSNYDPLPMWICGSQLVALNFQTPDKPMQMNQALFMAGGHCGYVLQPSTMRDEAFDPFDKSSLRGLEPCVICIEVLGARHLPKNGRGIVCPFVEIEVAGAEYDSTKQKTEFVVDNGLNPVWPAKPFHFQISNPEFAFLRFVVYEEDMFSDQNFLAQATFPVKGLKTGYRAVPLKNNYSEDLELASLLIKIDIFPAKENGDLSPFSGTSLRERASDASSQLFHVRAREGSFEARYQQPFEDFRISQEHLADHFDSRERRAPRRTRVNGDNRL

compound-smiles | tested-on | result-unit | IC50
C[C@@H]1CC[C@H]2[C@]13CC[C@@]1(C)O[C@]2(C)[C@@H](NCCCCN(C)CCCN(C)C)[C@H]1C3 | UniProt P10686 | µM | 16
CC(=O)c1cc2c(=O)c3c(C(=O)O)c(O)c(O)cc3oc2c(C(C)=O)c1-c1coc2cc(O)c(O)c(C(=O)O)c2c1=O | UniProt P10686 | µM | 5.4

The reported measurements were obtained from ChEMBL document CHEMBL1150918.
